# System: HOP-62 NSCLC
# MEASUREMENT PROTOCOL: NCI-60 one-dose screen, 48 h
# EXPERIMENTAL CONTEXT: 10 µM unless noted
About 83,000 compounds went through this panel and 20% of them were active in at least one assay; those are over-represented in the sample as a whole. The source made the active and inactive calls. The calls were made as follows: active = growth percent below 10; inactive = the rest.
Lab note: assign the record to one of class 1 (active), class 0 (inactive)

These solved cases illustrate the format of a correct answer.
[
  {
    "COMPOUND": "CCOc1ccc(-c2nc3ccc(-c4nc5ccc(N6CCN(C)CC6)cc5[nH]4)cc3[nH]2)cc1",
    "ASSAY TARGET": "HOP-62 NSCLC",
    "ASSIGNED CLASS": "class 1"
  },
  {
    "COMPOUND": "COc1cc(/C=C(/C)C[N+](=O)[O-])ccc1O",
    "ASSAY TARGET": "HOP-62 NSCLC",
    "ASSIGNED CLASS": "class 0"
  },
  {
    "COMPOUND": "Cc1c2ccccc2c(C)c2c1ccc1ccccc12",
    "ASSAY TARGET": "HOP-62 NSCLC",
    "ASSIGNED CLASS": "class 0"
  }
]

Q: In this assay, the call recorded for Nc1ccc(SSc2ccc(N)cc2)cc1 was what?
Result: class 0

Q: Each compound tested received a call. Report the one for Oc1ccc(/C=N/NC(=S)Nc2ccccc2)nc1 .
Result: class 0

Q: Kindly provide the recorded test outcome for the following compound: N#CSCc1ccc(Cl)c(CSC#N)c1
Result: class 0

Q: I would be grateful if you could indicate the recorded call for O=C(/C=C\c1ccccc1)N1c2ccccc2CC1c1c[nH]c2ccccc12 (stereo unspecified) .
Result: class 0

Q: Entry O=C1c2ccccc2C(=O)c2sc(Nc3ccc(Cl)cc3)nc21 : call = ?
Result: class 0

----------
# Tested on: A549/ATCC NSCLC
# MEASUREMENT PROTOCOL: NCI-60 one-dose screen, 48 h (100 = growth as untreated, 0 = no growth, -100 = all killed)
# EXPERIMENTAL CONTEXT: 10 µM unless noted
Compounds without any hit were thinned out: in the full panel of roughly 83,000, 20% have a hit.
// returns N unless growth is strictly below 90%, in which case Y

Would you please look over these solved cases?
[
  {
    "MOLECULE": "Oc1ccc(/C=N/NC(=S)Nc2ccccc2)nc1",
    "ASSIGNED CLASS": "Y"
  },
  {
    "MOLECULE": "CC(C)(C)c1ccc(O)c(C2CCCCC2)c1",
    "ASSIGNED CLASS": "N"
  },
  {
    "MOLECULE": "Cc1c2ccccc2c(C)c2c1ccc1ccccc12",
    "ASSIGNED CLASS": "Y"
  },
  {
    "MOLECULE": "CCCCCCCCCCCCCCCCN(CC)CC",
    "ASSIGNED CLASS": "Y"
  },
  {
    "MOLECULE": "Cc1ccnc2c1ccc1c(C)ccnc12",
    "ASSIGNED CLASS": "Y"
  },
  {
    "MOLECULE": "CNC(=O)N/N=C/c1ccc([N+](=O)[O-])o1",
    "ASSIGNED CLASS": "Y"
  },
  {
    "MOLECULE": "COC(=O)c1nc(=S)[nH]c(C(=O)OC)c1C(=O)c1ccc2ccccc2c1",
    "ASSIGNED CLASS": "N"
  },
  {
    "MOLECULE": "CC(C)c1ccc2nc3ccc(C(=O)NCCN4CCN(c5ccccc5)CC4)cn3c(=O)c2c1",
    "ASSIGNED CLASS": "Y"
  }
]

Q: Given O=C(/C=C/C=C/c1ccccc1)c1ccco1 , is recorded growth strictly lower than 90%?
Result: N

Q: # strict comparison: is reported growth < 90%? input = O=C1C2=C(Nc3cc([N+](=O)[O-])ccc3N2)OC1c1c2ccccc2cc2ccccc12 (stereo unspecified)
Result: Y

----------
# Test system: SW-620 colon
# MEASUREMENT PROTOCOL: NCI-60 one-dose screen, 48 h
# EXPERIMENTAL CONTEXT: 10 µM unless noted
Compounds without any hit were thinned out: in the full panel of roughly 83,000, 20% have a hit. The source made the active and inactive calls. The calls were made as follows: active = growth percent below 10; inactive = the rest.
Respond with a class label; see y (active), n (inactive)

[
  {
    "COMPOUND": "CC(C)(C)CC(C)(C)c1ccc(OCCSC(=N)N)cc1",
    "ASSIGNED CLASS": "y"
  },
  {
    "COMPOUND": "N[C@H](C(=O)O)[C@@H]1CC(Cl)=NO1",
    "ASSIGNED CLASS": "n"
  },
  {
    "COMPOUND": "O=C1c2ccccc2C(=O)c2sc(Nc3ccc(Cl)cc3)nc21",
    "ASSIGNED CLASS": "y"
  }
]

Q: Tell me the recorded outcome of this test for Cc1ccc(C(=Nc2ccccc2)N=P(c2ccccc2)(c2ccccc2)c2ccccc2)cc1 .
Result: y

Q: Answer briefly: the call reported for Oc1c(Br)c(Br)c(O)c(Br)c1Br in this assay.
Result: y

Q: Check the results log: what was the call for Cc1cc2nc(CS)[nH]c2cc1C ?
Result: n

----------
# Tested on: IGROV1 ovarian
# MEASUREMENT PROTOCOL: NCI-60 one-dose screen, 48 h
# EXPERIMENTAL CONTEXT: 10 µM unless noted
About 83,000 compounds went through this panel and 20% of them were active in at least one assay; those are over-represented in the sample as a whole. Activity calls are given as the source filed them. The calls were made as follows: active = growth percent below 10; inactive = the rest.
Could you please pick one outcome from this set? active, inactive

Use these answered entries as a reference point.
[
  {
    "MOLECULE": "Cc1cc(C(C)(CC(C)C)c2ccc(O)c(C)c2)ccc1O",
    "ASSAY TARGET": "IGROV1 ovarian",
    "ASSIGNED CLASS": "inactive"
  },
  {
    "MOLECULE": "CN(C)c1ccc(/C=N/N=C(\\C#N)[S][Sn]([Cl])([c]2ccccc2)[c]2ccccc2)cc1",
    "ASSAY TARGET": "IGROV1 ovarian",
    "ASSIGNED CLASS": "inactive"
  },
  {
    "MOLECULE": "O=[N+]([O-])c1ccc2c(N=Nc3ccc4ccccc4c3O)c(O)cc(S(=O)(=O)O)c2c1",
    "ASSAY TARGET": "IGROV1 ovarian",
    "ASSIGNED CLASS": "inactive"
  }
]

Q: Hi, sorry to bother you, what did the test record for N#CSCc1c(Cl)cccc1Cl ?
Result: inactive

Q: Query: recorded result category for S=C(N/N=C/c1ccccn1)Nc1ccccn1 in this test
Result: inactive

Q: State the result this test recorded for Cc1ccc(N=C=C(c2ccccc2)c2ccccc2)cc1 .
Result: inactive

Q: Any idea what this test logged for C[n+]1c(/C=C/c2ccc([N+](=O)[O-])cc2)ccc2ccccc21 ?
Result: inactive

Q: Kindly provide the recorded test outcome for the following molecule: O=[N+]([O-])c1ccc(N=Nc2ccc(O)cc2O)cc1
Result: inactive

Q: Test call for this molecule, please: CN(C)CCOc1ccc2c(c1)C(=O)/C(=C\c1ncc([N+](=O)[O-])n1C)C2
Result: active

Q: Any idea what this test logged for Cc1cc2nc(CS)[nH]c2cc1C ?
Result: inactive

Q: Assay outcome for CC1OC(OC2C(OC3CCC4(C)C(CCC5(C)C4CC=C4C6CC(C)(C)CCC6(CO)C(O)CC45C)C3(C)C)OC(C(=O)O)C(OC3OC(COC4OC(CO)C(O)C(O)C4O)C(O)C(O)C3O)C2O)C(O)C(O)C1O (stereo not drawn) : what was it?
Result: active

----------
# System: K-562 leukemia
# MEASUREMENT PROTOCOL: NCI-60 one-dose screen, 48 h
# EXPERIMENTAL CONTEXT: 10 µM unless noted
# Method: Cells are grown in 96 well plates and exposed to the test compound for 48 hours. Compounds are tested at a single concentration, which is 10^-5 M for most compounds. The reported endpoint is percent growth (GI% or GIPRCNT), where numbers from 0 - 100% represent growth inhibition, and numbers from -100% - 0 represent cell death. For example, a value of 40 represents 60% growth inhibition. A value of 0 means no net growth occurred over the course of the experiment. […]
This is part of a sample that, as a whole, favours compounds with a hit. Of some 83,000 tested, about 20% had one in any assay. The source made the active and inactive calls. How the source made its calls: active means growth percent below 10; inactive means the rest. Where a SMILES comes first, the peptide text is derived from it. The star is where a group is joined. Trt = c1ccc(C(c2ccccc2)(c2ccccc2)*)cc1; Cbz = O=C(OCc1ccccc1)*
Outcomes you can answer with include only these: active, inactive

A selection of reference data follows.
[
  {
    "COMPOUND": "CCOC(=O)/C=C/c1ccc([N+](=O)[O-])o1",
    "ASSIGNED CLASS": "active"
  },
  {
    "COMPOUND": "COC(=O)[C@@]12OC[C@]34[C@H]([C@@H](O)[C@@H]1O)[C@@]1(C)[C@H](O)C(=O)C=C(C)[C@@H]1C[C@H]3OC(=O)C(OC(C)=O)[C@@H]24 (some centres not stated)",
    "ASSIGNED CLASS": "active"
  },
  {
    "COMPOUND": "CNc1ccc2c(c1)c1ccccc1n2C",
    "ASSIGNED CLASS": "inactive"
  }
]

Q: Test call for this compound, please: COC(=O)C(CSC(c1ccccc1)(c1ccccc1)c1ccccc1)NC(=O)C(CC(N)=O)NC(=O)OCc1ccccc1 (stereo not drawn) (Cbz-Asn-Cys(Trt)-OMe; configuration not given here)
Result: inactive

Q: Which result was noted for this compound in the test: CN(Cc1cnc2nc(N)nc(N)c2n1)c1ccc(C(=O)NC(CCC(=O)O)C(=O)O)cc1 (configuration not stated)
Result: inactive

Q: Answer briefly: the call reported for N#CSCc1ccc(CSC#N)c(Cl)c1 in this assay.
Result: inactive

Q: Recorded test call requested for CC1OC(OC2C(OC3CCC4(C)C(CCC5(C)C4CC=C4C6CC(C)(C)CCC6(CO)C(O)CC45C)C3(C)C)OC(C(=O)O)C(OC3OC(COC4OC(CO)C(O)C(O)C4O)C(O)C(O)C3O)C2O)C(O)C(O)C1O (configuration not stated)
Result: active
